Biological target: human α-thrombin (Homo sapiens, UniProt P00734)
Construct: Pure human α-thrombin; gift of Dr. T. Lindhout (University of Limburg, Maastricht)
Experiment: Kinetics of hydrolysis of substrates by human α-thrombin in buffer A at 37° C. (Example 2, Table 1)
Assay type: biochemical
Method: Kinetic parameters: The hydrolysis experiments were run in buffer A at 37° C. The liberation of p-nitroaniline was monitored at 405 nm in a dual wavelength (405-546 nm) spectrophotometer made in our workshop, using a personal computer for data recording. In a polystyrene microcuvette (total volume 500 μL), buffer A and substrate solution were added to obtain a final substrate concentration between 1 to 2000 μM. […]
Reported Km is given for each of the following compounds.
Please respond with the number in µM and leave the unit unwritten.

Some solved cases for reference:
1) COC(=O)C(C)C(=O)NC(C)C(=O)NC(CCCNC(=N)N)C(=O)Nc1ccc([N+](=O)[O-])cc1.Cl (mixture of isomers) [MMZ-Ala-Arg-pNA.HCl] = 666
2) COC(=O)C(C)C(=O)NCC(=O)NC(CCCNC(=N)N)C(=O)Nc1ccc([N+](=O)[O-])cc1.Cl (mixture of isomers) [MMZ-Gly-Arg-pNA.HCl] = 1740

From here, focus on the item given below.
Please provide the recorded Km for NC(N)=NCCC[C@H](NC(=O)[C@@H]1CCCCN1C(=O)[C@H](N)Cc1ccccc1)C(=O)Nc1ccc([N+](=O)[O-])cc1 [2HCl.H-D-Phe-Pip-Arg-pNA] , tested on human α-thrombin (Homo sapiens, UniProt P00734).
5.62

---

Target: human α-thrombin (Homo sapiens)
Construct: Pure human α-thrombin; gift of Dr. T. Lindhout (University of Limburg, Maastricht)
Test: Kinetics of hydrolysis of substrates by human α-thrombin in buffer A at 37° C. (Example 2, Table 1)
Format: biochemical
Peptide text beside a SMILES is read from it. * marks the point of attachment. pNA = O=[N+]([O-])c1ccc(N*)cc1
ASSAY_READOUT: Km
Numeric answer plus unit only.

See these solved cases before continuing.
1) C[C@H](N)C(=O)N[C@@H](CCCNC(=N)N)C(=O)Nc1ccc([N+](=O)[O-])cc1.Cl.Cl [2HCl.H-Ala-Arg-pNA] (H-Ala-Arg-pNA) = 1140 µM
2) COC(=O)CC(=O)N[C@@H](C(=O)N[C@@H](CCCNC(=N)N)C(=O)Nc1ccc([N+](=O)[O-])cc1)C(C)C.Cl [MZ-D-Val-Arg-pNA.HCl] = 1310 µM

# get_value(readout='Km', item= COC(=O)CC(=O)N[C@@H](C)C(=O)N[C@@H](CCCNC(=N)N)C(=O)Nc1ccc([N+](=O)[O-])cc1.Cl [MZ-Ala-Arg-pNA.HCl] )
1540 µM

---

Target: human α-thrombin (Homo sapiens, UniProt P00734)
Construct: Pure human α-thrombin; gift of Dr. T. Lindhout (University of Limburg, Maastricht)
Test: Kinetics of hydrolysis of substrates by human α-thrombin in buffer A at 37° C. (Example 2, Table 1)
Assay type: biochemical
Square brackets hold non-standard residues; d marks the D form. Peptide text beside a SMILES is read from it. * marks the point of attachment. pNA = O=[N+]([O-])c1ccc(N*)cc1; Pip = O=C(O)[C@@H]1CCCCN1; Orn = NCCC[C@H](N)C(=O)O
This section presents molecules with their documented kcat /Km values.
Your answer should be a plain number; it is taken to be in M/s.

Below are worked cases with known answers.
1) Cl.Cl.NCCC[C@H](NC(=O)[C@@H]1CCCCN1C(=O)[C@H](N)Cc1ccccc1)C(=O)Nc1ccc([N+](=O)[O-])cc1 [2HCl.H-D-Phe-Pip-Orn-pNA] (H-[dF]-[Pip]-[Orn]-pNA) = 11100
2) COC(=O)CC(=O)N[C@H](C)C(=O)N[C@@H](CCCNC(=N)N)C(=O)Nc1ccc([N+](=O)[O-])cc1.Cl [MZ-D-Ala-Arg-pNA.HCl] = 44.4

I would be grateful if you could share the reported kcat /Km for COC(=O)CC(=O)N[C@@H](C)C(=O)N[C@@H](CCCNC(=N)N)C(=O)Nc1ccc([N+](=O)[O-])cc1.Cl [MZ-Ala-Arg-pNA.HCl] .
69900
